Values compiled from ChEMBL document CHEMBL3988442.

Can you tell me Percent Effect for the items I'm about to list?
biological target: Arginase-2, mitochondrial (Homo sapiens) (UniProt P78540); assay: in vitro enzyme assay to detect the production of urea directly proportional to the activity of Arginase II; assay type: functional; parameters: scale not given: in the data most compounds retested in dose-response had high values; conditions: 33.3 µM
Sequence (P78540 whole entry): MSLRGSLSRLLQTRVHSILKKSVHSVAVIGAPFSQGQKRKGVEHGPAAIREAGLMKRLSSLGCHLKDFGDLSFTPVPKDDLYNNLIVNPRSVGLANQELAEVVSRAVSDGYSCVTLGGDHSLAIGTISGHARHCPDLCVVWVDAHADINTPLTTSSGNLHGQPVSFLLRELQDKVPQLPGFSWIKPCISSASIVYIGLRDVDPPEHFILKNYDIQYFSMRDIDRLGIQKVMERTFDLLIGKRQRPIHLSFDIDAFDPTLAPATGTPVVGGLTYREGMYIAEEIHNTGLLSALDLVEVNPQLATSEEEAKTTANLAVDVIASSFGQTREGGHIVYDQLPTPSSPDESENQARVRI

Input line: Please give the measured Percent Effect for this compound: C[C@@H]1C(=O)NC[C@H]2CN(CCc3ccccc3)C[C@H]21
Output line: 2.74%

Input line: I have this compound here, Cc1cc2ccccc2n1CCC(=O)NCc1ncc[nH]1 , and I need its recorded Percent Effect.
Output line: -1.16%

Input line: Quick check: Percent Effect of CCS(=O)(=O)CC(=O)NC(c1ccc(F)cc1)C1CCCC1 (stereo unspecified) ?
Output line: -2.37%

Input line: Given the entry NC(=O)CN1CCC(NC(=O)Nc2nccs2)CC1 , report its measured Percent Effect.
Output line: -0.82%

Input line: Which Percent Effect is listed for COC(=O)c1ccc(S(=O)(=O)NCc2cccnc2N(C)C)cc1 ?
Output line: -4.18%

Input line: Record request: Percent Effect value, item COc1ccc(CNC(=O)c2nn(C)c3c2CS(=O)(=O)CC3)cc1OC
Output line: -11.8%

Input line: Which Percent Effect value belongs to CC(=O)NCCNC(=O)c1sc(-c2ccc(Cl)s2)nc1C ?
Output line: 1.29%

Input line: Reported Percent Effect for O=C1CC[C@H]2[C@H](CCN2C(=O)C2CCCO2)N1Cc1ccncc1 (stereo partly specified) : what is it?
Output line: -8.63%

Input line: Returns the measured Percent Effect for the input compound. Input: O=C(c1ccc[nH]1)N1CCC2(CC1)C(=O)Nc1ccccc12
Output line: 4.22%

Input line: Reported Percent Effect, compound COc1cc(CNCc2c(C)nn(C)c2N(C)C)ccc1C : ____
Output line: -6.41%

Input line: Which measured Percent Effect value corresponds to Cc1cc(C)c(OCC(=O)NS(=O)(=O)c2cccnc2)c(C)c1 ?
Output line: -0.766%
